Tested on: SK-BR-3
Assay info: normalised response (% of control), CellTiter-Glo; higher = more viable cells (100 = DMSO, 0 = benzethonium chloride kill control)
Condition notes: incubation time: 72 h
Endpoint name: normalised response (%)
Dear colleague, please return just the value in %, with no unit written.

Let me check: CN1CCc2c(c3ccccc3n2Cc2ccc(C(=O)NO)cc2)C1 [Tubastatin A] (10000 nM) , system SK-BR-3, measured normalised response is 42.2

Entry CC/C(=C(\c1ccccc1)c1ccc(OCCN(C)C)cc1)c1ccccc1 [Tamoxifen] (10000 nM) : normalised response on SK-BR-3 = 53.4

Per the reported SK-BR-3 data, CC(C)C(=O)Nc1ccc([N+](=O)[O-])c(C(F)(F)F)c1 [Flutamide] (10000 nM) has normalised response of 105

Summary line: COc1cc2c(cc1-c1c(C)noc1C)ncc1[nH]c(=O)n([C@H](C)c3ccccn3)c12 [I-BET151] (10000 nM) , SK-BR-3, reported normalised response = 53

Observed normalised response, SK-BR-3, CO[C@H](C(=O)[C@@H](O)[C@@H](C)O)[C@@H]1Cc2cc3cc(O[C@H]4C[C@@H](O[C@@H]5C[C@@H](O)[C@H](O)[C@@H](C)O5)[C@H](O)[C@@H](C)O4)c(C)c(O)c3c(O)c2C(=O)[C@H]1O[C@H]1C[C@@H](O[C@@H]2C[C@@H](O)[C@@H](O[C@@H]3C[C@](C)(O)[C@H](O)[C@@H](C)O3)[C@@H](C)O2)[C@H](O)[C@@H](C)O1 [Plicamycin] (10000 nM) : 10.1

Summary line: CO[C@H]1C[C@@H]2CC[C@@H](C)[C@@](O)(O2)C(=O)C(=O)N2CCCC[C@H]2C(=O)O[C@H]([C@H](C)C[C@@H]2CC[C@@H](O)[C@H](OC)C2)CC(=O)[C@H](C)/C=C(\C)[C@@H](O)[C@@H](OC)C(=O)[C@H](C)C[C@H](C)/C=C/C=C/C=C/1C [Sirolimus] (100 nM) , SK-BR-3, reported normalised response = 57.4

Noted normalised response for N[C@@H](Cc1ccc(N(CCCl)CCCl)cc1)C(=O)O [Melphalan] (12500 nM) , tested on SK-BR-3: -0.14

Summary: O=NN(CCCl)C(=O)NC1CCCCC1 [Lomustine] (10000 nM) , SK-BR-3, normalised response = 101

Recorded normalised response for CCN(CC)CCOc1ccc(C(=C(Cl)c2ccccc2)c2ccccc2)cc1 [Clomifene] (10000 nM) on SK-BR-3 was 27.5

Record Cn1nnc2c(C(N)=O)ncn2c1=O [Temozolomide] (10000 nM) ; system SK-BR-3; normalised response = 93.9
